Listed next: entries and their corresponding inhibition.
Target under test: UniProtKB P0DTD1
Assay conditions: 20.0 µM

{"columns": ["Compound", "Target under test", "inhibition [%]"],
 "data": [
  ["C=CC(=O)N(C1CC(C)OC1=O)C(C(=O)NC(C)(C)C)c1cccnc1 (stereo unspecified)", "UniProtKB P0DTD1", -2.18],
  ["NCCn1cc(C(=O)N2CC3(CCC3)c3cc(Br)ccc32)cn1", "UniProtKB P0DTD1", -2.84],
  ["N#Cc1ccc(CNC(=O)Cc2c[nH]c3ncccc23)cc1", "UniProtKB P0DTD1", 2.44],
  ["O=C(Nc1ccccc1)Nc1cnc2ccc([N+](=O)[O-])cc2n1", "UniProtKB P0DTD1", -15.3],
  ["COc1ccc(OC)c(CNC(=O)Nc2cn(C)c(=O)c3ccccc23)c1", "UniProtKB P0DTD1", 25],
  ["O=C(NCCNc1ccccc1)c1cc(=O)[nH]c2ccccc12", "UniProtKB P0DTD1", 32],
  ["Cn1cc(NC(=O)N(Cc2ccco2)CC2CCCO2)c2ccccc2c1=O (stereo unspecified)", "UniProtKB P0DTD1", 2.81],
  ["O=C1C(=O)N(Cc2ccccc2)c2cc(Br)ccc21", "UniProtKB P0DTD1", 0.852],
  ["CC(C)(C)c1ccc(N(C(=O)c2cccnc2)C(C(=O)NCCc2cccc(F)c2)c2cccnc2)cc1 (stereo unspecified)", "UniProtKB P0DTD1", -5.55],
  ["COc1cc(CN2CCN(C(=O)CCl)CC2)c2ccccc2c1", "UniProtKB P0DTD1", 82.8],
  ["N#Cc1ccc(CNC(=O)Cc2c[nH]c3ncccc23)nc1", "UniProtKB P0DTD1", 4.15]
]}

###

Listed next: entries and their corresponding relative solubility at 20 uM.
Assay conditions: 20.0 µM

{"columns": ["Molecule", "relative solubility at 20 uM"],
 "data": [
  ["C=CC(=O)N(c1ccc(N(C)C)c(C)c1)C(C(=O)Nc1ccc(Br)cc1)c1cccnc1 (stereo unspecified)", 0.84],
  ["O=C(Cc1c[nH]c2ncccc12)NCc1ccc(Cl)cc1", 1],
  ["COc1cc(NC(=O)C(=O)Nc2cc(OC)c(OC)c(OC)c2)cc(OC)c1OC", 0.99],
  ["Cc1ccncc1NC(=O)CCc1ccn[nH]1", 1],
  ["Cc1cccc(NC(=O)Cn2c(=O)oc3ccccc32)c1", 0.99],
  ["C=CC(=O)N(c1ccc(C(F)(F)F)cc1)C(C(=O)Nc1ccccc1Br)c1cccnc1 (stereo unspecified)", 0.94],
  ["COc1ccc2c(c1)C(C(=O)Nc1cncnc1C)CCC2 (stereo unspecified)", 1],
  ["CC(C(=O)O)c1ccc2c(c1)[nH]c1ccc(Cl)cc12 (stereo unspecified)", 1],
  ["Cc1ccncc1NC(=O)CCOC1CC1", 1],
  ["CC(C)c1scnc1NC(=O)C1CCOc2ccc(Cl)cc21 (stereo unspecified)", 1],
  ["C=CC(=O)N(c1ccc(C(C)(C)C)cc1)C(C(=O)NCCc1cccc(F)c1)c1cncc(Cl)c1 (stereo unspecified)", 0.71]
]}

###

Listed next: entries and their corresponding inhibition.
Target under test: SARS-CoV-2 Main Protease (SARS-CoV-2)
Assay conditions: 50.0 µM

{"columns": ["Compound", "Target under test", "inhibition / %"],
 "data": [
  ["Cc1noc([C@@H](C)S(=O)(=O)Cc2cccc(C(F)(F)F)c2)n1 (stereo in doubt)", "SARS-CoV-2 Main Protease (SARS-CoV-2)", 0],
  ["CS(=O)(=O)Nc1cccc(C2=NN(C(=O)CCl)C(c3ccccc3)C2)c1 (stereo unspecified)", "SARS-CoV-2 Main Protease (SARS-CoV-2)", 57.6],
  ["O=C(Cc1ccc2ccccc2c1)Nc1cc(C(F)(F)F)ccn1", "SARS-CoV-2 Main Protease (SARS-CoV-2)", 29.3],
  ["Cc1ccncc1NC(=O)c1cccc(NC(=O)Nc2cccnc2)c1", "SARS-CoV-2 Main Protease (SARS-CoV-2)", 1.27],
  ["O=C(CCl)N1CCN(C(c2ccccc2)c2ccccc2)CC1", "SARS-CoV-2 Main Protease (SARS-CoV-2)", 100],
  ["O=C(Cc1cccc(Cl)c1)Nc1cnccc1O", "SARS-CoV-2 Main Protease (SARS-CoV-2)", 0],
  ["O=C(Cn1nnc2ccccc21)Nc1cccc(Cl)c1", "SARS-CoV-2 Main Protease (SARS-CoV-2)", 55.1],
  ["COCC1CCN(c2ccc(S(N)(=O)=O)cc2)CC1", "SARS-CoV-2 Main Protease (SARS-CoV-2)", 44],
  ["O=C(CNc1c(-c2ccccc2)nc2ccccn12)N/N=C/c1cccc2ccccc12", "SARS-CoV-2 Main Protease (SARS-CoV-2)", 7.53],
  ["O=C(CC(C[S][Au])C(=O)[O][Na])[O][Na] (stereo unspecified)", "SARS-CoV-2 Main Protease (SARS-CoV-2)", 39.1],
  ["Cc1ccncc1NC(=O)Nc1ccccc1", "SARS-CoV-2 Main Protease (SARS-CoV-2)", -0.18]
]}
